From: patent US9834556B2

- ASSAY_TEXT: Solubility of 6 in extraction solvents
- Type: physicochemical
- TEST_PARAMETERS: organic solvent or mixture; Solvent DCM
- Experimental: While this initial trial was very promising, in subsequent experiments on larger scale, complications were encountered. One issue was that during the neutralization of acetic acid, emulsions were often obtained. Multiple solvent systems were investigated and the solubility of 6 was evaluated to estimate the efficiency of the extraction (Table 17).
QUANTITY: solubility (mg/mL)
Answer in mg/mL, number only, no unit symbol.

Qu. State, in one line, measured solubility of CC(C)(C)OC(=O)NC1(c2ccc(-n3c(-c4cccnc4N)nc4ccc(-c5ccccc5)nc43)cc2)CCC1 [Compound 6]
Ans. 126
